Source listed as patent US6461844B1.

- TARGET: GalNAc kinase (Sus scrofa, UniProt A0A287BB25)
- Construct: This enzyme was purified about 1400-fold from the cytosolic fraction of pig kidney; from tissue; host or cells: pig kidney cytosol
- Sequence (A0A287BB25 1-458): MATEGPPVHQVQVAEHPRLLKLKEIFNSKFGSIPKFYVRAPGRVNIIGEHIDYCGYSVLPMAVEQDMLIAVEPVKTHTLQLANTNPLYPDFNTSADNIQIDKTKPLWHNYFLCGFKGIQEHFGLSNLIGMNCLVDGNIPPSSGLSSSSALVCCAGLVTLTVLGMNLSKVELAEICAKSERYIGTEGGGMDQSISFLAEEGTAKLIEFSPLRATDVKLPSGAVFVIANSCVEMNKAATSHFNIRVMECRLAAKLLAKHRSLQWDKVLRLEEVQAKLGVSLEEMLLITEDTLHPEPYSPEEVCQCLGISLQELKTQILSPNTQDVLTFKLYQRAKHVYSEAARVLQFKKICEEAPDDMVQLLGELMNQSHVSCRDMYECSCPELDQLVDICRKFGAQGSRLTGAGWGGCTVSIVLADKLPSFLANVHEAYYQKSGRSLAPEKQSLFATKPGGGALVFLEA
- ASSAY SUMMARY: Phosphate donor specificity of GalNAc kinase
- Assay type: biochemical, pig
- EXPERIMENTAL SETUP: nucleotide added at 5 mM
MEASURED METRIC: Specific Activity (nmol/mg)

Some solved entries appear below for comparison.
| LINE NOTATION | DISPLAY UNIT | Specific Activity |
| --- | --- | --- |
| Nc1ncnc2c1ncn2[C@@H]1O[C@H](COP(=O)(O)OP(=O)(O)OP(=O)(O)O)[C@@H](O)[C@H]1O | nmol/mg | 160.0 |
| Nc1nc2c(ncn2[C@@H]2O[C@H](COP(=O)(O)OP(=O)(O)OP(=O)(O)O)[C@@H](O)[C@H]2O)c(=O)[nH]1 | nmol/mg | 4.7 |
| O=c1ccn([C@@H]2O[C@H](COP(=O)(O)OP(=O)(O)O)[C@@H](O)[C@H]2O)c(=O)[nH]1 | nmol/mg | 0.5 |
| Nc1ccn([C@@H]2O[C@H](COP(=O)(O)OP(=O)(O)OP(=O)(O)O)[C@@H](O)[C@H]2O)c(=O)n1 | nmol/mg | 5.8 |

a: Nc1nc2c(ncn2[C@@H]2O[C@H](COP(=O)(O)OP(=O)(O)O)[C@@H](O)[C@H]2O)c(=O)[nH]1
b: O=c1ccn([C@@H]2O[C@H](COP(=O)(O)OP(=O)(O)OP(=O)(O)O)[C@@H](O)[C@H]2O)c(=O)[nH]1
c: Nc1ncnc2c1ncn2[C@@H]1O[C@H](COP(=O)(O)OP(=O)(O)O)[C@@H](O)[C@H]1O
d: Nc1ccn([C@@H]2O[C@H](COP(=O)(O)OP(=O)(O)O)[C@@H](O)[C@H]2O)c(=O)n1
e: O=c1[nH]cnc2c1ncn2[C@@H]1O[C@H](COP(=O)(O)OP(=O)(O)OP(=O)(O)O)[C@@H](O)[C@H]1O
Returns the items ordered by Specific Activity, from maximum to minimum. Answer by listing the labels in the order asked for. e, d, c, b, a
(e: 14.1 nmol/mg, d: 7.6 nmol/mg, c: 4.0 nmol/mg, b: 2.8 nmol/mg, a: 0.1 nmol/mg)

====

- TARGET: GalNAc kinase (Sus scrofa, UniProt A0A287BB25)
- Construct: This enzyme was purified about 1400-fold from the cytosolic fraction of pig kidney; from tissue; host or cells: pig kidney cytosol
- ASSAY SUMMARY: Phosphate donor specificity of GalNAc kinase
- Format: biochemical, pig
- Design: unit not given beside the values
- EXPERIMENTAL SETUP: nucleotide added at 5 mM
MEASURED METRIC: Radioactivity in Sugar-P

Some solved entries appear below for comparison.
| LINE NOTATION | TARGET | RECORDED NUMBER |
| --- | --- | --- |
| O=c1[nH]cnc2c1ncn2[C@@H]1O[C@H](COP(=O)(O)OP(=O)(O)OP(=O)(O)O)[C@@H](O)[C@H]1O | GalNAc kinase (Sus scrofa, UniProt A0A287BB25) | 900 |
| Nc1ncnc2c1ncn2[C@@H]1O[C@H](COP(=O)(O)OP(=O)(O)O)[C@@H](O)[C@H]1O | GalNAc kinase (Sus scrofa, UniProt A0A287BB25) | 260 |
| Nc1ccn([C@@H]2O[C@H](COP(=O)(O)OP(=O)(O)OP(=O)(O)O)[C@@H](O)[C@H]2O)c(=O)n1 | GalNAc kinase (Sus scrofa, UniProt A0A287BB25) | 370 |

I: Nc1nc2c(ncn2[C@@H]2O[C@H](COP(=O)(O)OP(=O)(O)OP(=O)(O)O)[C@@H](O)[C@H]2O)c(=O)[nH]1
II: Nc1ccn([C@@H]2O[C@H](COP(=O)(O)OP(=O)(O)O)[C@@H](O)[C@H]2O)c(=O)n1
III: O=c1ccn([C@@H]2O[C@H](COP(=O)(O)OP(=O)(O)O)[C@@H](O)[C@H]2O)c(=O)[nH]1
IV: O=c1ccn([C@@H]2O[C@H](COP(=O)(O)OP(=O)(O)OP(=O)(O)O)[C@@H](O)[C@H]2O)c(=O)[nH]1
V: Nc1nc2c(ncn2[C@@H]2O[C@H](COP(=O)(O)OP(=O)(O)O)[C@@H](O)[C@H]2O)c(=O)[nH]1
Endpoint returns the given molecules ordered by ascending Radioactivity in Sugar-P. Answer by listing the labels in the order asked for. V, III, IV, I, II
